Documented Population Mitotic Cells (%) across a set of compounds
System: U2OS
Test: Multiplex assay against U2OS
Format: toxicity, cell-based
Details: human, 48 h, 1 µM, compound concentration 1 uM, replicate 2
outcome.measure: Population Mitotic Cells (%)

{"columns": ["compound", "unit.spec", "result"],
 "data": [
  ["CCCCC(=O)N(Cc1ccc(-c2ccccc2-c2nnn[nH]2)cc1)[C@H](C(=O)O)C(C)C", "%", 15],
  ["Cl.N=C(N)NC(=O)Cc1c(Cl)cccc1Cl [GUANFACINE HYDROCHLORIDE]", "%", 9],
  ["CCCCCC(O)/C=C/[C@H]1C(=O)CC(O)C1C/C=C\\CCCC(=O)O (stereo partly specified)", "%", 0],
  ["CN1CCN(c2cc(-c3ccccc3)nc(N)n2)CC1", "%", 30],
  ["Cc1cnc(-c2cc(N3CCN(C(=O)CCS(C)(=O)=O)CC3)ncc2Cl)c(C)c1", "%", 5],
  ["CC(C)COc1ccc(CNC(=O)N(Cc2ccc(F)cc2)C2CCN(C)CC2)cc1", "%", 7],
  ["Cc1onc(-c2ccccc2Cl)c1C(=O)N(C)c1ccc(Cl)cc1", "%", 10],
  ["N#Cc1cc(F)cc(-c2nc(-c3ccc(F)cn3)no2)c1", "%", 0],
  ["Cl.NCCc1ccc(O)c(O)c1 [DOPAMINE HYDROCHLORIDE]", "%", 10],
  ["Cc1sc2c(c1C)C(c1ccc(Cl)cc1)=N[C@@H](CC(=O)NCCCCCCCCNC(=O)COc1cccc3c1C(=O)N(C1CCC(=O)NC1=O)C3=O)c1nnc(C)n1-2 (stereo partly specified)", "%", 9],
  ["CC(C)c1noc(N2CCC(COc3ccc(-c4ccc(S(C)(=O)=O)cc4)nc3)CC2)n1", "%", 10],
  ["CN[C@@H](C)C(=O)N[C@H](C(=O)N1CCC[C@H]1C(=O)Nc1snnc1-c1ccccc1)C1CCCCC1", "%", 11],
  ["CCCOc1ccc2[nH]cc(C3=CCNCC3)c2n1.Cl", "%", 25],
  ["C[C@H](N)COC(=O)[C@@H](CCCCN)NC(=O)Cc1c(-c2ccc3ccccc3c2)[nH]c2c1ccc1ccccc12", "%", 26],
  ["CC(=O)Nc1cccc2c1c(Sc1ccc(Cl)cc1)c(C)n2CC(=O)O", "%", 18],
  ["O=C1[C@H](Cc2ccc(O)cc2)N2C(=O)CCN(C(=O)NCc3ccccc3)[C@H]2CN1Cc1cccc2ccccc12", "%", 4]
]}
